# pEC50 annotations
# ASSAY_SYSTEM: PD-1/PD-L1 interaction (Homo sapiens, UniProt Q9NZQ7)
# Construct: Jurkat cells (PD-1 plus NFAT-luciferase)
# Sequence (Q9NZQ7 19-290): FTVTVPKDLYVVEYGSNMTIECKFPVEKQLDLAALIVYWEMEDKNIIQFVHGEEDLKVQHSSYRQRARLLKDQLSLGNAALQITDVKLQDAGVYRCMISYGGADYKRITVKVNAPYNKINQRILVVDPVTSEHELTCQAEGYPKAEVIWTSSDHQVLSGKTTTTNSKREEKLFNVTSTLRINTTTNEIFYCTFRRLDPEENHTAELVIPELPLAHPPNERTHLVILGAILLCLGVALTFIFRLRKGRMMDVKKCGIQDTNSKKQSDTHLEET
# PROCEDURE_DETAILS: PD-1/PD-L1 NFAT Reporter Assay
# STUDY_CONDITIONS: co-culture of PD-L1 expressing CHO cells and PD-1 overexpressing Jurkat cells, 6 hrs, NFAT luciferase
pEC50: −log10 of the molar value.

Inquiry: For the record `COc1nc(-c2cccc(-c3cccc(NC(=O)c4ccnn(C)c4=O)c3C)c2F)cc(C)c1CNC[C@@H]1CCC(=O)N1` , what value of pEC50 is listed for PD-1/PD-L1 interaction (Homo sapiens, UniProt Q9NZQ7)?
Reply text: 7.00 to 8.00

Inquiry: For PD-1/PD-L1 interaction (Homo sapiens, UniProt Q9NZQ7), provide pEC50 of `COc1nc(-c2cccc(-c3cccc(NC(=O)c4ccnn(C)c4=O)c3Cl)c2Cl)ccc1CN1C(=O)O[C@H]2COCC[C@H]21` please.
Reply text: < 5.00

Inquiry: Item `COc1nc(-c2cccc(-c3cccc(NC(=O)c4ccnn(C)c4=O)c3C)c2C)ccc1CNC(C)(C)CO` with PD-1/PD-L1 interaction (Homo sapiens, UniProt Q9NZQ7) - pEC50?
Reply text: < 5.30

Inquiry: Hello, I am looking for reported pEC50 with PD-1/PD-L1 interaction (Homo sapiens, UniProt Q9NZQ7) for `COc1nc(-c2cccc(-c3cccc(NC(=O)c4ccnn(C)c4=O)c3Cl)c2Cl)ccc1CN[C@@H]1CCOC[C@@H]1O` . Could you help?
Reply text: < 5.00
